Numbers sourced from patent US20260216326A1.

# Measured On: T1, human TL1A (human, UniProt O95150 72-251, limits assumed)
# T1 construct: also called tumor necrosis factor-like cytokine 1A; TNFSF15
# T1 sequence (looked up): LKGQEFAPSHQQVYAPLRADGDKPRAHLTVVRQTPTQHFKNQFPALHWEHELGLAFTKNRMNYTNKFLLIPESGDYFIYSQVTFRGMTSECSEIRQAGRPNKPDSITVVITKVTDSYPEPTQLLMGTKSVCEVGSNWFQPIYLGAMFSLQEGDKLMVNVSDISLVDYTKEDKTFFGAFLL
# Protocol Description: ELISA titration on plate-coated human TL1A, unpurified culture supernatant
Please respond with reported pKd for every item in the list.
Numbers only, as −log10 of the molar value.

1. A180 (antibody, IgG1, V domains shown) VH: QVQLVQSGAEVKKPGASVKVSCKASGFDIQDTYMHWVRQAPGQGLEWMGRIEPASGHIKYDPKFQGRATMTRDTSTSTAYMELSSLRSEDTAVYYCARSGGLPDWWGQGTTVTVSS VL: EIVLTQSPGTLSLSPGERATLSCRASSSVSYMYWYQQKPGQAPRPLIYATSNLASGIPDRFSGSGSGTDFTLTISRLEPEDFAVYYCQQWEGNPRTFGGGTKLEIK: 10.24
2. A176 (antibody, IgG1, V domains shown) VH: QVQLVQSGAEVKKPGASVKVSCKASGFDIQDTYMHWVRQAPGQGLEWMGRIDPASGHIKYDPKFQGRVTMTRDTSTSTAYMELSSLRSEDTAVYYCARSGGLPDWWGQGTTVTVSS VL: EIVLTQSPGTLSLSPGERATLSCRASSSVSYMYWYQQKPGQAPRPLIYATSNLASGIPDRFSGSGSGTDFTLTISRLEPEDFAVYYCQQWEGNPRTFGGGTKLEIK: 10.32
3. A183 (antibody, IgG1, V domains shown) VH: QVQLVQSGAEVKKPGASVKVSCKASGFDIQDTYMHWVKQRPGQGLEWMGRIDPASGHTKYDPKFQVRATITTDTSTSTAYLELSSLRSEDTAVYYCARSGGLPDVWGQGTTVTVSS VL: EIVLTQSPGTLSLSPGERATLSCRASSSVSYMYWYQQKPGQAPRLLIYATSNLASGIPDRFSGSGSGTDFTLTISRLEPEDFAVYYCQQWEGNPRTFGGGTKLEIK: 10.19

// each binder listed below needs its pKd
1. A188 (antibody, IgG1, V domains shown) VH: QVQLVQSGAEVKKPGASVKVSCKASGFDIQDTYMHWVKQRPGQGLEWIGRIDPASGHTKYDPKFQVRVTITTDTSTSTAYLELSSLRSEDTAVYYCARSGGLPDVWGQGTTVTVSS VL: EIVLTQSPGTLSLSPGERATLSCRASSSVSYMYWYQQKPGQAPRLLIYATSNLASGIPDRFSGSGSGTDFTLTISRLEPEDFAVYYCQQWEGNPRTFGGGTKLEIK
2. A209 (antibody, IgG1, V domains shown) VH: EVQLVQSGAEVKKPGASVKVSCKASGFDIQDTYMHWVKQAPGQGLEWMGRIEPASGHIKYDPKFQGRVTMTRDTSTSTVYMELSSLRSEDTAVYYCARSGGLPDWWGQGTTVTVSS VL: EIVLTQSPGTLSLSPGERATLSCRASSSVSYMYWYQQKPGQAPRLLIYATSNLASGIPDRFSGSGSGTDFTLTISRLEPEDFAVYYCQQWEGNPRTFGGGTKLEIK
3. A156 (antibody, IgG1, V domains shown) VH: QVQLVQSGAEVKKPGASVKVSCKASGFDIQDTYMHWVRQAPGQGLEWMGRIEPASGHIKYDPKFQVRATMTRDTSTSTVYMELSSLRSEDTAVYYCARSGGLPDWWGQGTTVTVSS VL: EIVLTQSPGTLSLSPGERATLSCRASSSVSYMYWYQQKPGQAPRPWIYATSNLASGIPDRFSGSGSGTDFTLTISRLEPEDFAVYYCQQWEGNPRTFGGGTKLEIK
4. A200 (antibody, IgG1, V domains shown) VH: EVQLVQSGAEVKKPGASVKVSCKASGFDIQDTYMHWVRQRPGQGLEWIGRIDPASGHTKYDPKFQVRATITTDTSTSTAYLELSSLRSEDTAVYYCARSGGLPDVWGQGTTVTVSS VL: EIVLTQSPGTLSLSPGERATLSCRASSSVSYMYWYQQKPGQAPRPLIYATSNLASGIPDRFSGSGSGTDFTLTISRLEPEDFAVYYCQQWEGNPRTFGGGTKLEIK
5. A191 (antibody, IgG1, V domains shown) VH: QVQLVQSGAEVKKPGASVKVSCKASGFDIQDTYMHWVKQRPGQGLEWIGRIDPASGHTKYDPKFQVRATITTDTSTSTAYMELSSLRSEDTAVYYCARSGGLPDVWGQGTTVTVSS VL: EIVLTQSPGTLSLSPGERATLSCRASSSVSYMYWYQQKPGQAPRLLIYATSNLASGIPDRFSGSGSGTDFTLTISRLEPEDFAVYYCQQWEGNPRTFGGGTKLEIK

[10.20, 10.24, 10.03, 10.28, 10.24]

Give one value of pKd per listed binder.
1. A203 (antibody, IgG1, V domains shown) VH: EVQLVQSGAEVKKPGASVKVSCKASGFDIQDTYMHWVKQAPGQGLEWMGRIEPASGHIKYDPKFQGRVTMTRDTSTSTVYMELSSLRSEDTAVYYCARSGGLPDWWGQGTTVTVSS VL: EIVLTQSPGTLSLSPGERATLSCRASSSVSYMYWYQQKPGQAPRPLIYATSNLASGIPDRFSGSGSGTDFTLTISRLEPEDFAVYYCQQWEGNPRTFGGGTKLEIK
2. A192 (antibody, IgG1, V domains shown) VH: QVQLVQSGAEVKKPGASVKVSCKASGFDIQDTYMHWVKQRPGQGLEWIGRIDPASGHTKYDPKFQVRATITTDTSTSTVYMELSSLRSEDTAVYYCARSGGLPDVWGQGTTVTVSS VL: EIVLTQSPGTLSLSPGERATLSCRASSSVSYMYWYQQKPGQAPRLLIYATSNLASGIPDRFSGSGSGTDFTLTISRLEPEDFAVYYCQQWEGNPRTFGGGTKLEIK

10.21
10.26
